# Tested on: HL-60
# test: NCI tumour cell line growth inhibition, 48 h
Activity calls are given as the source filed them. Rule as the data show it: active = GI50 up to about 1.1 µM and inactive = higher.
Hi! Could you answer with just one of these? T = active, F = inactive

Inquiry: Please share the test call associated with CC1=N/C(=C\c2c(O)ccc3ccccc23)C(=O)O1 .
Reply text: F

Inquiry: Please share the test call associated with CC(C)C(C/C=C1/CC(CO)(COC(=O)CC(C(C)C)C(C)C)OC1=O)C(C)C (stereo not drawn) .
Reply text: T

Inquiry: Please share the test call associated with CN1CCc2nc(N)nc(-c3nc(N)nc4c3CN(C)CC4)c2C1 .
Reply text: F

Inquiry: Please share the test call associated with CC(=O)NNc1nc(C)c(C(/C=C/c2ccc(Cl)cc2)=N\N=C(N)N)s1 .
Reply text: F

Inquiry: Please share the test call associated with O=C(COc1ccccc1)NS(=O)(=O)c1ccccc1 .
Reply text: F

Inquiry: Please share the test call associated with Cc1ccc(NC(=S)C#N)c(C)c1 .
Reply text: F

Inquiry: Please share the test call associated with O=[N+]([O-])c1cccc2nc3ccccc3c(NCCC[N+]3([O-])CCOCC3)c12 .
Reply text: T

Inquiry: Please share the test call associated with S=C1NC2=C(COc3ccccc32)C(c2ccc(Cl)cc2)N1 (stereo not drawn) .
Reply text: F

----------
# System: SK-MEL-28
# test: NCI tumour cell line growth inhibition, 48 h
The source made the active and inactive calls. No stated cut-off is given here; in the data, active = GI50 up to about 1.1 µM and inactive = higher.
Hi! Could you answer with just one of these? active, inactive

Inquiry: Please share the test call associated with CC1CC(C)CC(C)C(O)/C(C#N)=C/C=C/CC(C2CCCC2C(=O)O)OC(=O)CC(O)C(C)C1 (centres undefined) .
Reply text: active

Inquiry: Please share the test call associated with O=C1O[C@]2(c3ccccc3)C(c3ccccc3)=C[C@]2(C(=O)c2ccccc2)C1=O .
Reply text: inactive

Inquiry: Please share the test call associated with O=c1[nH]nc(-c2cccc([N+](=O)[O-])c2)[nH]1 .
Reply text: inactive

Inquiry: Please share the test call associated with CC(=O)C1CCN(c2ccccc2)C1 (centres undefined) .
Reply text: inactive

----------
# System: NCI/ADR-RES
# test: NCI tumour cell line growth inhibition, 48 h
Calls of active or inactive are those of the source. Rule as the data show it: active = GI50 up to about 1.1 µM and inactive = higher.
I'd appreciate it if you could supply GI50 values for the items below.

Inquiry: Can you share its GI50? I mean this molecule: O=C1CS(=O)(=O)C(c2cccc(Oc3ccccc3)c2)N1c1cc(Cl)ccc1Cl (stereo not given)
Reply text: 25.7 µM (inactive)

Inquiry: Can you share its GI50? I mean this molecule: CC1CC=CC(O)C1 (stereo not given)
Reply text: > 100 µM (inactive)

Inquiry: Can you share its GI50? I mean this molecule: Cn1c2cn[nH]c(=O)c2c2ccc3ccccc3c21
Reply text: 84.1 µM (inactive)

Inquiry: Can you share its GI50? I mean this molecule: C[C@@H](CN1CC(=O)NC(=O)C1)N1CC(=O)NC(=O)C1
Reply text: 282 µM (inactive)

Inquiry: Can you share its GI50? I mean this molecule: CSc1nc2c(=O)n(-c3ccccc3)c(=S)n(-c3ccccc3)c2s1
Reply text: 85.1 µM (inactive)

----------
# Test system: SK-MEL-5
# test: NCI tumour cell line growth inhibition, 48 h
The source made the active and inactive calls. No stated cut-off is given here; in the data, active = GI50 up to about 1.1 µM and inactive = higher.
Hi! Could you answer with just one of these? true (1) = active, false (0) = inactive

Inquiry: Please share the test call associated with Cc1cc(N(CCC#N)CCC#N)ccc1C(/N=N/c1ccc(Cl)cc1)=N\NC(=O)c1cc(Cl)ccc1O .
Reply text: false (0)

Inquiry: Please share the test call associated with N#CC(C(=O)CCC(=O)Nc1ccc(Cl)cc1)c1ccc(Cl)cc1 (stereo not given) .
Reply text: false (0)

Inquiry: Please share the test call associated with CC(O)CCCCC(O)CCC[C@H](O)[C@H]1CCC([C@H]2CCC([C@@H](O)CCCCCCCCCCCCC3=C[C@H](C)OC3=O)O2)O1 (stereo not given in full) .
Reply text: false (0)

Inquiry: Please share the test call associated with COC(=O)C1CC(=O)O[C@H]1c1ccc(OC)c(OC)c1 (stereo not given in full) .
Reply text: false (0)

Inquiry: Please share the test call associated with COC(=O)CC(C(C(C)=O)C(=O)OCc1ccccc1)N1C(=O)OCC1c1ccccc1 (stereo not given) .
Reply text: false (0)

Inquiry: Please share the test call associated with CN1CCCC2[C@@H]3CCC4=C(O)C(=O)CC[C@]4(C)C3CC[C@@]21C (stereo not given in full) .
Reply text: false (0)

Inquiry: Please share the test call associated with CNC1C(=O)C(C)C(O)(C(CC(C)C(O)/C=C/C=C/CNC(=O)C(C)(C)C(O)\C(C)=C/C=C\C=C\Cc2cnc(C)o2)OC)C12C(=O)OC2C.CNC1C(=O)C(C)C(O)(C(CC(C)C(O)/C=C/C=C/CNC(=O)C(C)(C)C(O)\C(C)=C/C=C\C=C\Cc2cnc(C)o2)OC)C12C(=O)OC2COC (stereo not given) .
Reply text: true (1)

Inquiry: Please share the test call associated with CC(C)CC(N)C(=O)NC(C(=O)NC(CCCNC(=N)N)C(=O)NC(CS)C(=O)NC1CSCC(C(=O)NC(Cc2ccccc2)C(=O)NC(C(=O)NC(CCCNC(=N)N)C(=O)O)C(C)C)NC(=O)C2CCCN2C(=O)C(CCCCN)NC(=O)C2CCCN2C(=O)C2CCCN2C(=O)C(Cc2ccc(O)cc2)NC(=O)C(CO)NC(=O)C(CCCCN)NC(=O)C(C(C)O)NC(=O)C(Cc2c[nH]c3ccccc23)NC1=O)C(C)C (stereo not given) .
Reply text: false (0)

Inquiry: Please share the test call associated with CC1=NN(c2cccc(Cl)c2)C2(C1=Cc1ccccc1)C(Cl)C(=O)N2c1nc2ccccc2s1 (stereo not given) .
Reply text: false (0)

Inquiry: Please share the test call associated with CCCCCn1cnc2c1S(=O)(=O)N(C)C(NC(=O)c1ccccc1)=N2 .
Reply text: false (0)

Inquiry: Please share the test call associated with CC(C)(C)COS(=O)OCC(C)(C)C .
Reply text: false (0)

Inquiry: Please share the test call associated with O=C(/C=C/c1ccccc1)Oc1ccc(C(=O)/C=C/c2ccc(Cl)cc2)cc1 .
Reply text: false (0)

Inquiry: Please share the test call associated with CCOC(=O)c1cc(C)nc2c1c(=O)n(-c1ccccc1)c(=O)n2CCCCN1CCN(c2ccccc2)CC1 .
Reply text: false (0)

Inquiry: Please share the test call associated with N#Cc1c(NC(=O)CCC(=O)O)ccc2ccccc12 .
Reply text: false (0)

Inquiry: Please share the test call associated with Cc1[nH]c2ncn3ncnc3c2c1Cc1ccccc1 .
Reply text: false (0)

Inquiry: Please share the test call associated with O=CC(O)C(O)C(O)COc1cc(CO)cc2c1C(=O)c1ccccc1C2=O (stereo not given) .
Reply text: false (0)

Inquiry: Please share the test call associated with N#C[C@@H](c1nc2ccccc2s1)c1ncccc1[N+](=O)[O-] .
Reply text: false (0)

Inquiry: Please share the test call associated with O=C1c2ccccc2C(=O)N1CCCCNOCCCN1C(=O)c2ccccc2C1=O .
Reply text: false (0)

Inquiry: Please share the test call associated with O=C(Nc1ccc(F)cc1)C(=O)C(C(=O)c1ccccc1F)C1OC(=O)c2ccccc21 (stereo not given) .
Reply text: false (0)

Inquiry: Please share the test call associated with CCOCc1cc(=O)c2c(O)cc3c(c2o1)CCC(C)(C)O3 .
Reply text: false (0)

Inquiry: Please share the test call associated with CCOC(OC1=C(C#N)CCC1)C(CC)[Se]c1ccccc1 (stereo not given) .
Reply text: false (0)

Inquiry: Please share the test call associated with CC1CNC(c2ccc(COc3ccc(C4=NC(C)CN4)cc3)cc2)=N1 (stereo not given) .
Reply text: false (0)

Inquiry: Please share the test call associated with CC(=O)Oc1ccc2c(c1OC(C)=O)CCC1C2=CC[C@]2(C)C(=O)CCC12 (stereo not given in full) .
Reply text: true (1)

Inquiry: Please share the test call associated with CC(=O)/C(=C/NC(=S)c1cccnc1)C(=O)Nc1ccccc1C .
Reply text: false (0)

Inquiry: Please share the test call associated with COc1ccc(N2N=NN(C(C)C)/C2=C(/Cl)c2nnnn2-c2ccc(OC)cc2)cc1 .
Reply text: false (0)

Inquiry: Please share the test call associated with C=C(C(=O)O)[C@@H]1C[C@@H]2O[C@H]1CC(C)=CCC/C(C)=C/CC[C@@]2(C)O .
Reply text: false (0)

Inquiry: Please share the test call associated with C/C(=N\NC(=O)c1ccccc1O)C1=CNc2ccccc2S1 .
Reply text: false (0)

Inquiry: Please share the test call associated with CC(=O)C1CCN(c2ccccc2)C1 (stereo not given) .
Reply text: false (0)

Inquiry: Please share the test call associated with CC#CC(=O)Nc1ccccc1CC(c1c[nH]c2ccccc12)c1c[nH]c2ccccc12 .
Reply text: false (0)

Inquiry: Please share the test call associated with COC(=O)N1CC(=O)C(C(=O)NC23CC4CC(CC(C4)C2)C3)C1 (stereo not given) .
Reply text: false (0)

----------
# Tested on: SN12C
# test: NCI tumour cell line growth inhibition, 48 h
Calls of active or inactive are those of the source. No stated cut-off is given here; in the data, active = GI50 up to about 1.1 µM and inactive = higher.
readout: GI50

Inquiry: Can you share its GI50? I mean this compound: COc1ccc(C(=O)C(c2ccc(OC)cc2)C2OC(=O)C(Cl)=C2Cl)cc1 (stereo unspecified)
Reply text: > 100 µM (inactive)

Inquiry: Can you share its GI50? I mean this compound: O=C(O)c1c(CC(Cc2ccc3c(c2)CCCC3)C(=O)O)ccc2c1CCCC2 (stereo unspecified)
Reply text: > 100 µM (inactive)

Inquiry: Can you share its GI50? I mean this compound: CCCCCCCCCCCCOP(=O)(O)OCC(N)C(=O)O (stereo unspecified)
Reply text: 22.1 µM (inactive)

Inquiry: Can you share its GI50? I mean this compound: CC(C)(CN1CCCCC1)C(/C=C/c1ccc(Cl)cc1)=N\NC(=O)N/N=C(/C=C/c1ccc(Cl)cc1)C(C)(C)CN1CCCCC1
Reply text: 3.85 µM (inactive)

Inquiry: Can you share its GI50? I mean this compound: Clc1ccc(-c2nn3c(COc4cccc(OCc5nnc6sc(-c7ccc(Cl)cc7)nn56)c4)nnc3s2)cc1
Reply text: 12.6 µM (inactive)

Inquiry: Can you share its GI50? I mean this compound: CCOC(=O)c1cc(NC(=O)N(CCC#N)CCN(C(=O)N[C@@H](Cc2ccccc2)C(=O)N[C@@H](CC(C)C)C(=O)NC)c2ccccc2)ccc1OC
Reply text: 33.7 µM (inactive)

Inquiry: Can you share its GI50? I mean this compound: O=C(CC(C(=O)c1ccco1)c1cccs1)c1cccs1 (stereo unspecified)
Reply text: 66.8 µM (inactive)

Inquiry: Can you share its GI50? I mean this compound: CC1CC/C(=C\c2ccc(N(C)C)cc2)C(=O)/C1=C/c1ccc(N(C)C)cc1 (stereo unspecified)
Reply text: > 100 µM (inactive)

Inquiry: Can you share its GI50? I mean this compound: C[C@@H](NS(=O)(=O)c1ccc(NC(=O)c2ccccc2)cc1)C(=O)O
Reply text: > 100 µM (inactive)

Inquiry: Can you share its GI50? I mean this compound: ON[C@@H]1C=C[C@H](n2cnc3c(NC4CC4)ncnc32)C1
Reply text: > 100 µM (inactive)

Inquiry: Can you share its GI50? I mean this compound: CSc1ncnc2c1cnn2Cc1cn(CCCCO)nn1
Reply text: > 100 µM (inactive)
